- System: K562
- protocol-details: NCI tumour cell line growth inhibition, 48 h
Active and inactive are the calls of the source. Rule as the data show it: active = GI50 up to about 1.1 µM and inactive = higher.
Could you please pick one outcome from this set? active, inactive

Worked examples follow.
- compound: "COc1cc(/C=C\\c2ccc(Cl)cc2)cc(OC)c1OC"
  group-label: "active"
- compound: "CCOC(=O)/C(=C\\NC(C)(C)CO)c1nc2ccccc2[nH]1"
  group-label: "inactive"
- compound: "C[N+](C)(C)CC(=O)N/N=C(/Cc1nc2ccc([N+](=O)[O-])cc2nc1O)C(=O)Nc1cc(C(F)(F)F)ccc1Cl"
  group-label: "inactive"
- compound: "COc1cc(OC)cc(-n2c(N)c(C#N)c3ccc([N+](=O)[O-])cc3c2=O)c1"
  group-label: "inactive"

Q: Outcome? NC(=O)NC(=O)c1cccc(CNc2ccc(C(=O)N[C@@H](CCC(=O)O)C(=O)O)cc2)n1
Ans: inactive

###

- Test system: SF-295
- protocol-details: NCI tumour cell line growth inhibition, 48 h
Activity calls are given as the source filed them. No stated cut-off is given here; in the data, active = GI50 up to about 1.1 µM and inactive = higher.
experimental-readout: GI50

Take a look at these entries with their results.
- compound: "CSc1ncnc2c1ncn2C1CC(Oc2ccc(C)cc2)C(COc2ccc(C)cc2)O1 (stereo not drawn)"
  experimental-readout: "GI50"
  result: "> 100 µM (inactive)"
- compound: "O=P(NC12CC3CC(CC(C3)C1)C2)(N1CC1)N1CC1"
  experimental-readout: "GI50"
  result: "10 µM (inactive)"

Here's the next entry for you.
Q: Identify the measured GI50 of C/C(CC(=O)Nc1ccccc1C)=N/NS(=O)(=O)c1ccc(C)cc1 for SF-295.
Ans: > 100 µM (inactive)

###

- System: SNB-75
- protocol-details: NCI tumour cell line growth inhibition, 48 h
The source made the active and inactive calls. No stated cut-off is given here; in the data, active = GI50 up to about 1.1 µM and inactive = higher.
Hi there, use one of these labels in your reply, thanks! active, inactive

Example entries and their recorded answers appear below.
- molecule: "CC(C)(C)NNc1c([N+](=O)[O-])cnn(-c2ccccc2)c1=O"
  group-label: "inactive"
- molecule: "S=P1(Sc2ccccc2)Oc2ccc3ccccc3c2-c2c(ccc3ccccc23)O1"
  group-label: "inactive"
- molecule: "COc1cc(/C=N/c2ccc(S(N)(=O)=O)cc2)cc(OC)c1"
  group-label: "inactive"
- molecule: "CC(C)=CCNc1ncnc2[nH]cnc12"
  group-label: "inactive"

Q: I would be grateful if you could indicate the recorded call for CON(C(=O)OC(C)(C)C)c1ccccc1 .
Ans: inactive

Q: So what was the verdict on COC(=O)C1=C2Nc3ccccc3C23CCN2C(O)C4(CC5CC67CCOC6CCN6CCC8(c9cccc(OC)c9N(C4)C58O)C67)C4OCCC4(C1)C23 (stereo not drawn) in this test?
Ans: inactive

###

- System: RXF 393
- protocol-details: NCI tumour cell line growth inhibition, 48 h
Calls of active or inactive are those of the source. No stated cut-off is given here; in the data, active = GI50 up to about 1.1 µM and inactive = higher.
Would you mind telling me the reported GI50 of each entry?

- compound: "CC1=CCC([C@@](C)(O)CCCC(C)(C)N=C=S)CC1 (stereo partly drawn)"
  GI50: "13.7 µM (inactive)"
- compound: "N#CCCC1(CCC#N)S(=O)(=O)OCCOS1(=O)=O"
  GI50: "37.1 µM (inactive)"

// switching to the query compound
Q: What does the record list as GI50 for CC(C)(C)OC(=O)[C@@H]1CCC(=O)N1C1(c2ccccc2)c2ccccc2-c2ccccc21 ?
Ans: 9.77 µM (inactive)
